biological target: furin, P09958; assay: furin cleavage Z-score vs untreated control; higher = more cleavage, active = 3.5 or more, inactive = 1 or less, 8 variable residues between constant flanks; conditions: 15 min;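 note: purified furin at 1:10 enzyme:substrate in 50 mM HEPES pH 7.5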
Sequence (P09958 whole entry): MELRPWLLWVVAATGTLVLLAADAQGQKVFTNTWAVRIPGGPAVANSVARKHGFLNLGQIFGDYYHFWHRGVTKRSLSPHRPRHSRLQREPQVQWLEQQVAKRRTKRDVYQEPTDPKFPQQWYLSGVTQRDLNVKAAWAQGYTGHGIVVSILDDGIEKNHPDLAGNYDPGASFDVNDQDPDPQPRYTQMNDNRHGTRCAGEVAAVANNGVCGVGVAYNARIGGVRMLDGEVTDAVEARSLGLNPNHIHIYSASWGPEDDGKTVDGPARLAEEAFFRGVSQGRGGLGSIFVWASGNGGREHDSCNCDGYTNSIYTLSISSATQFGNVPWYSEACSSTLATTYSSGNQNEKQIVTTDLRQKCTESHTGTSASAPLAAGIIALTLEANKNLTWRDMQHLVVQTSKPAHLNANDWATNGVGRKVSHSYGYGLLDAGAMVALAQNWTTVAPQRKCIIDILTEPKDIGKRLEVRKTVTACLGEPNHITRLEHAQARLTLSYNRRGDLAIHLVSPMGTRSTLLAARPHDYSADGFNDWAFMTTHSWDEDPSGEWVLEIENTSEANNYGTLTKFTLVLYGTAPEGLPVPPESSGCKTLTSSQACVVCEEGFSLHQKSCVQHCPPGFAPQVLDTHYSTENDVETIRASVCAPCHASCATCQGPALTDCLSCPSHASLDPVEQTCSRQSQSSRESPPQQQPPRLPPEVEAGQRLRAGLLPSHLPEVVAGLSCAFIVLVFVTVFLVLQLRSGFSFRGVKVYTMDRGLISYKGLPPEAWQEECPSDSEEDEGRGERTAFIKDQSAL
This is one part of the list. No count for the full screen is at hand.
Outcomes: active, inactive

{"columns": ["Sequence Text", "Category Label"],
 "data": [
  ["CASTICSAHLAGNASASA [HC2504]", "inactive"],
  ["CAVIDCNTCVAGNASASA [HC886]", "inactive"],
  ["CALKKRIKSVAGNASASA [FS-2123]", "inactive"],
  ["CAQTSRNTRSAGNASASA [FS-184]", "active"],
  ["CARPVRDDSVAGNASASA [FS-3029]", "inactive"],
  ["CAKSKKTPMGAGNASASA [HC1475]", "inactive"],
  ["CARRFRVVSGAGNASASA [FS-1774]", "inactive"],
  ["CAPRALRKRDAGNASASA [FS-1603]", "active"],
  ["CAQEVRSKRDAGNASASA [FS-622]", "active"],
  ["CARFLRSVMSAGNASASA [FS-1821]", "active"],
  ["CAGTQRLTRAAGNASASA [FS-438]", "active"],
  ["CAEVFCVQPEAGNASASA [HC1442]", "inactive"],
  ["CARAARFAKTAGNASASA [FS-1885]", "inactive"],
  ["CAERHRQTRSAGNASASA [FS-763]", "active"],
  ["CAQTSRSNRFAGNASASA [FS-852]", "inactive"],
  ["CAKERRSKRDAGNASASA [FS-934]", "active"]
]}
